Where do these numbers come from? They come from the DeepSol protein solubility set.

Experiment: soluble on expression in E. coli; label from the status in PepcDB or PDB records

{"Residues": "MGSDKIHHHHHHMEPNDAVVGVDVSKEHLDVYLMPTGDQKRVTNDDAGCAELTTWLITNAPCRIVLEATGGLEMLAVSTLSAAGLPVVVVNPRQVRNFAKACGLLAKTDILDAKIIARFAQAIKPEIRPLKDETSQNLAALLARRRQLVEMLVAEKNRVISAAPTVRKGIMTHIAWLTQQIDDVDKDISTLIQSSESWKAKEEILTSVKGIGPVTAATILAALPELGTISRQQLGALVGVCPYNRDSGKFRGKRAISGGRATVRSVLYMATLCAARFNPVIKAFYQRLTSAGKLHKVAITACMRKLLTILNAMVKNNQKWDHSKFTPLLH", "soluble on expression in E. coli": "not soluble"}
{"Residues": "MGSDKIHHHHHHMFAPFAGETSRGEADMSGDLDQATMDRLFAKARTYSKFTKAPVSDDLLRQAWDLARMGPTSVNCQPMRVVFVRSSAAKERLKPALAPGNLDKTMAAPVTAIIAHDMEFYEQLPKLFPHADARAWFVGNEAMIQSTAFRNGTLQGAYFILALRAIGLDCGPMSGFDNAKLDEAFFKGTTLRSNFLVNIGHGDAAGLYPRGPRLDFDEACRVE", "soluble on expression in E. coli": "not soluble"}

* * *

Assay: soluble on expression in E. coli; label from the status in PepcDB or PDB records

{"Residues": "MNQLIFDFAAHDYPSFDKFLGTENAELVYVLRHKHGQFIYVWGEEGAGKSHLLQAWVAQALEAGKNAAYIDAASMPLTDAAFEAEYLAVDQVEKLGNEEQALLFSIFNRFRNSGKGFLLLGSEYTPQQLVIREDLRTRMAYCLVYEVKPLTDQEKIDALASMAAARQVTVDSEIFEYLLKHWRRDMDSLMMMLDTLDNYAVTMGKRITLPLLRQLLKQQETQLEHHHHHH", "soluble on expression in E. coli": "soluble"}
{"Residues": "MRSIFLLHFDYKTCEEEDFEDWNLADGKCLNGAKYMYKRRKQDARCLVKRTFKDMILHEIPCDSCTESDYECSSEFVRDAKGDCIPDYDQIALSDICDKANGETVSLEPLQLIKGDKCKKPMEIEAMNIPCEKILRESSNGKKIATIENKFDFEI", "soluble on expression in E. coli": "not soluble"}
{"Residues": "MSLGYAFPSILGNLMSKIYQMDAVDWLKTLENCSVDLFITDPPYESLEKYRQIGTTTRLKESKSSSNQWFSVFPNTRFEELFREVYRVLKKGSHFYLFCDQETMFLAKPIAESVGFKFWKPIVWDKCAIGMGYHYRARYEFILFFEKGKRKLNDLSVPDVLEYKRVWKGYPTEKPVELLEVLIRQSSSENEIVADSFFGSGSTLIAANNLSRKYIGCDISSSAHEYFKNRAEGHHHHHH", "soluble on expression in E. coli": "soluble"}
{"Residues": "RSFYNLGMDYKYRFHRFSIQGEAALGISGMAFMNQVLYSPLQDIRLMLVHRYYSHDYWAMFAHSFSEGSSVQNENGWYLAASVNPFNRWTFFVSADLFSFPWWRYRISKASKGVDLLFQADYVPSKTVDMYVNYRYKQKERDVTGTQGKVILPTYHHRLRYRLNYLPCSSLSLRTTVDYNHFHSSGKTAGQGYQLTQTAGWKLPWLPLTTELQGSYFHTDDYDSRIYIYEKGLLYSFYTPSFQGEGIRLAIHFRYDMNKHWTAIAKLGQTTYFDRDEIGSGNDLIRGNKKTDVQMQLRLKF", "soluble on expression in E. coli": "not soluble"}
{"Residues": "MSSGVAAPQPSSCVPSRVSVLSMDFEDIYRFFQDPPPHYLSKELAVCYVLAVLRHEDSYGTELIQHLETHWPNYRLSDTVLYTALKFLEDEQIISGYWKKVEGRGRPRRMYQLAQANDDRSRDLAQLWERYLSSSAATDRQLIPVEAR", "soluble on expression in E. coli": "soluble"}
{"Residues": "MIQARSRRPLSCSLRSSSQNPIATTFLTGGKMDRIVRQILVKLLGGERSVYELIYYQDASLREFFELLNSLRDEGLIEVESGKVRITEKGREVAEKERLKFCGDVECECCEGTGLSINPYFKEILQKYSEIAKDRPETIEVYDQGFISLEGVIRRVEFVYDRGDLNGRIFVVGDDDLFGIAASLTGMPEKVAVVDIDERLINFINRVAEEYSLNVEAFVYDVQQAFPDELKRKFDVFVTDPVETIPGLKLFLSRGVSTLKGVGGAGYFGITTLEASRRKWYEIQRMIHDMGFIITDLRRRFNVYPEDEKNFFRFQEKLPIVRHLQAKVDFNWYNSTLFRIEAVKEPKPIVEGEMIIDEKVYKDDESWATPY", "soluble on expression in E. coli": "not soluble"}

* * *

Assay: soluble on expression in E. coli; label from the status in PepcDB or PDB records

{"Residues": "MSQTILFVCATGIATSTAVTEKVMEYCKEQGLNVNYSQTNVASLPGNTDGVALVVSTTKVPYELDVPVVNGLPIITGIGEEKVLAQIVSILKK", "soluble on expression in E. coli": "soluble"}
{"Residues": "MITFEKVTVENESVVKEMFKSHSLGEKKVQYCVKVDDTYIGVIDYSVQEERAVLSQLIIHFDYQGYGYGTNTYFTFEEMMKQRNVKEIKVLKEKLTEKAKSFIESFGFTSEDEEYVKKI", "soluble on expression in E. coli": "not soluble"}
{"Residues": "MAHHHHHHMGKAAKGRTAMPGKLDTTEADKRTPKSIIIYRGEVGIHVRSLMHEWRNVFLPWSSKKLHGKNKSLKDFLAVAATFSASHLQLFTAPSQGTSLRIMRFFNGPTLSFRVLSFTLHKEIVAKQRRPVAVDRAAWEVAPIVVLNNFTHPDLAHRAEVPLLTATFKALFPSLNVQTIQSSEIQRICLFHYDHVEHVVEVRHYYINARTVGVTKTVKKLLENRRPTKLGTLESIDEVLDREDAWSDTDG", "soluble on expression in E. coli": "not soluble"}
{"Residues": "MAIIKRSAATDNPNIEILSTPEQIDVLSAEALMEALQGDDLEQILRAIHQLEAADSVEFQQHQAALFTLLDRDTEQNPCSDAVFSLLAIRNNDEITTRLIPLLDSEAPYLRNQAIEILQHSPQQLERHIQDLLNHQDPDVRIFAIDIIGLLPHQSVPEWLMQVLQHEEHINVIGTAIDRVAQLSDPNFSTILGEVKQRFSHVPYLVFACDVAIKRLNT", "soluble on expression in E. coli": "not soluble"}
{"Residues": "MTETKEERVHQVFEKIYKRYDVMNSVISFQRHKAWRKDTMKRMNVQEGQSALDVCCGTADWAIALGKAVGPTGHVEGLDFSENMLSIGKKKIADERLDHVFLRHGNAMELPYADDTFDFVTIGFGLRNVPDYMQVLREMARVTKPGGKVVCLETSQPTIPVFKQLYFFYFRHVMPLFGKMFAKSYDEYSWLQESTLSFPGRDRLAQMFKEVGLTDVQVKPYSGGAAAMHLGVKESYDEESRNVTCLEHHHHHH", "soluble on expression in E. coli": "not soluble"}
{"Residues": "MGSDKIHHHHHHMSICIKDQIQNMNIVIGCTVGCAYCYARNNVKRWHMIDDFAAPEFFPGKLKMMEKKRPQNFLLTGMSDLSGWKPEWRNVVFAKIRENPQHQFLFLTKRPDLLDFDTDLENAWFGVTVTRKAELWRIDALRKNVRAKHYHVTFEPLFDDPGTVDLSGINWIVVGTMTGAQSRKIHTEPEWAWSLADQAHKLGIPVFMKEDIVPIIGDENMIQEMPEEFNKVLEVQKSWKK", "soluble on expression in E. coli": "not soluble"}
{"Residues": "MGSDKIHHHHHHMIRSLWIAKTGLDAQQTQMDVISNNLANVSTNGFKRGRAVFEDLMYQNIRQPGALSSDQTTLPSGLQLGTGVRPVATERIHTQGNPQQTGNSKDVAIIGQGFFQVAMPDGTTAYTRDGSFQVDQNGQLVTSSGFVIQPAITIPANTTSMTVARDGTVSVTQPGSSNNVQVGQLQLATFMNPAGLESMGENLYVQTDASGAPNTTVPGLNGAGVLQQNYVEASNVNVVEELVSMIQTQRAYEINSKAVQTSDQMLQRLTQMG", "soluble on expression in E. coli": "not soluble"}
{"Residues": "MYQLEKEPIVGAETFYVDGAANRETKLGKAGYVTNRGRQKVVTLTDTTNQKTELQAIYLALQDSGLEVNIVTDSQYALGIITQWIHNWKKRGWKTADKKPVKNVDLVNQIIEQLIKKEKVYLAWVPAHKGIGGNEQVDKLVSAGIRKVLF", "soluble on expression in E. coli": "soluble"}
{"Residues": "MTITSGIDVGTGAIKVVVFEVDGDQERCLGKRVERVRQRDPLKLAGDIYDDLLRETGLARADVAYCATTGEGESLTFHTGHFYSMTTHARGAIYLNPGSRAVLDTGALHGRAIRMDERGKVLAYKMTSQCASGSGQFLENIARYLGIAQDEIGSLSQRADNPEKVSGICAVLAETDVINMVSRGISSPNILRGIHESMADRLAKLLKTLGSLDGTVQMTGGLALDAGLVEAMKDAVVKAKVDVAIESHPDAIYAGAIGAALWGAFRHKRLADMAHAA", "soluble on expression in E. coli": "not soluble"}
{"Residues": "SEKNPPDDTGPVHVPLGHIVANEKWRGSQLAQEMQGKIKLIFEDGLTPDFYLSNRCCILYVTEADLVAGNGYRKRLVRVRNSNNLKGIVVVEKTRMSEQYFPALQKFTVLDLGMVLLPVASQMEASCLVIQLVQEQTKEPSKNPLLGKKRALLLSEPSLLRTVQQIPGVGKVKAPLLLQKFPSIQQLSNASIGELEQVVGQAVAQQIHAFFTQPR", "soluble on expression in E. coli": "soluble"}
{"Residues": "MGSDKIHHHHHHMMPAKWDEVRPLLDRFSRDLPTNATVWFMMPDGSYYATAKGGFTDQNLKDCTCFPKLIGGKEVLGELVISRSTGQRSIVVAAPVVADGKVVAAVGVSVDAVKLIEVVESRMTLPENAYIYALDAKTKVTLHRYQARTFKTVFEIGNESLGDTFKKVMHREQGVFNYSLEGKKMNSIFRKSPVHGWYFFIAQQCK", "soluble on expression in E. coli": "not soluble"}
{"Residues": "PVPRTCWIGPWKKNLAQGKITLKLINWIKKAELKNQPVLIFFPEIEAMNQFAEALVNYDFTRPVTVHSADQLRKEKVEWLREGKIKLLLTTTILERGVTFKDVQVAVFGSEGRIFTEAALVQIAGRAGRKLTHPTGDVCFFHYGKTTEMNRAITHIKKMNQLGFKEG", "soluble on expression in E. coli": "soluble"}
{"Residues": "MGSDKIHHHHHHMSLPKYVEQLLKEKSNVRVFSFKYDGKSYWLKQTEKLSFIWRFLKSNPAEMLKSEIIRLQELNKKSAPVPKLVLFGDNFFVTEDVGSSANTWVENEDLSIELRNKVLFDCAQALASLHKQNITHGRPALRDMIWCEEKVIFVDFECTSSSNNIDWQKIRDGLVFIHSLGRSSTVSDEQIALTVTHYRQYCDADIWQKTADFIYKYRWAYYVLRIFKPVARMDLIAIYRLFEAILKNQETL", "soluble on expression in E. coli": "not soluble"}
